tested-target: Large T antigen (Simian virus 40) (UniProt P03070)
Sequence (P03070 whole entry, looked up): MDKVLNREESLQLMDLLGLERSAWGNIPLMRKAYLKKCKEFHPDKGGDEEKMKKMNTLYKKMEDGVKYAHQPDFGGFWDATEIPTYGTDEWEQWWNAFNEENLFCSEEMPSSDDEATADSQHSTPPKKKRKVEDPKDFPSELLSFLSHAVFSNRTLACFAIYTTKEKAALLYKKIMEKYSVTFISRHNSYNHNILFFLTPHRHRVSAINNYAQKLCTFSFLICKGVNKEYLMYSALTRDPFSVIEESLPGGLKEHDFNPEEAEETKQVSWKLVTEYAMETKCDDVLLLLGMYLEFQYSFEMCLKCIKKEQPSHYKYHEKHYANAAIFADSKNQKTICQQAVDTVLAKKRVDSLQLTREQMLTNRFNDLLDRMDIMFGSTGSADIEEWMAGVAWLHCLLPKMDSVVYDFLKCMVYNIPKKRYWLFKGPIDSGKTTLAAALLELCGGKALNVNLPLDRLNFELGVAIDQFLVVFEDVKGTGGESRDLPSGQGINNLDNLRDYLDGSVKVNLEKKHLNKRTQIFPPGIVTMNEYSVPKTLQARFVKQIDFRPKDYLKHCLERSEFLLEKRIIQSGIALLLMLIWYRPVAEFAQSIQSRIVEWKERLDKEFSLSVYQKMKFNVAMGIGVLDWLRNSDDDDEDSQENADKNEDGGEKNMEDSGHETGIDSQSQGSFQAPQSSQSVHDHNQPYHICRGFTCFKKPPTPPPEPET
test: SV40 large T antigen inhibitors, biochemical (AID 1903)
protocol-conditions: SV40 large T antigen ATPase/helicase inhibition assay; at 20 µM; hits give high values
In all, about 310,000 compounds went through this assay and about 1,200 (0.39%) were called active. These entries were drawn from the full list. Measured potencies and affinities stand elsewhere.
The following compounds are shown together with reported inhibition values.

Record excerpt, results attached:
Please report the measured inhibition for Cc1ccc(N(C(=O)Cc2c[nH]c3ccccc23)C(C(=O)NC2CCCCC2)c2ccco2)cc1 (stereo unspecified)
-1.52% (inactive)

Please report the measured inhibition for Oc1ccc(-c2csc(Nc3ncccn3)n2)cc1
6.13% (inactive)

Please report the measured inhibition for COc1c(CC=C(C)C)c(O)cc2oc(=O)c3c4ccc(O)cc4oc3c12
21.6% (inactive)

Continuing:
Please report the measured inhibition for N[C@@H](Cc1c[nH]c2ccc(O)cc12)C(=O)O
20.5% (inactive)

Please report the measured inhibition for O=C(O)Cc1c[nH]c2ccc(O)cc12
29.6% (inactive)

Please report the measured inhibition for CCn1c(=O)n(CC)c2cc(S(N)(=O)=O)ccc21
3.97% (inactive)
